Target: UniProt:P22303
Test: biochemical
Conditions: read-out: IC50 rh-AChE
ASSAY METRIC: IC50 (nM)
Answer with a number only, understood to be in nM.

Task item: Which IC50 reading was recorded for the molecule C=C1c2nc3cc(Cl)ccc3c(N)c2C2CC(CCCCO)=CC1C2 (stereo not shown) [HUP 37, Trifluoroacetic Acid] ?
Reply: 256

Task item: Which IC50 reading was recorded for the molecule NC(=O)OCCC1=CC2Cc3nc4cc(Cl)ccc4c(N)c3C(C1)C2 (stereo not shown) [HUP 17, Trifluoroacetic Acid] ?
Reply: 18.5

Task item: Which IC50 reading was recorded for the molecule N#CCCC1=CC2Cc3nc4cc(Cl)ccc4c(N)c3C(C1)C2 (stereo not shown) [HUP 8, Trifluoroacetic Acid] ?
Reply: 3.15

Task item: Which IC50 reading was recorded for the molecule CCOC(=O)CC1=CC2Cc3nc4cc(Cl)ccc4c(N)c3C(C1)C2 (stereo not shown) [HUP 1] ?
Reply: 3.9

###

Field: pIC50. Provide a value for each of the compounds that follow.
Biological target: erythrocyte h-AChE (Homo sapiens)
Construct: from tissue; host or cells: human erythrocytes
Sequence (P22303 32-617 isoform P22303-2 limits assumed): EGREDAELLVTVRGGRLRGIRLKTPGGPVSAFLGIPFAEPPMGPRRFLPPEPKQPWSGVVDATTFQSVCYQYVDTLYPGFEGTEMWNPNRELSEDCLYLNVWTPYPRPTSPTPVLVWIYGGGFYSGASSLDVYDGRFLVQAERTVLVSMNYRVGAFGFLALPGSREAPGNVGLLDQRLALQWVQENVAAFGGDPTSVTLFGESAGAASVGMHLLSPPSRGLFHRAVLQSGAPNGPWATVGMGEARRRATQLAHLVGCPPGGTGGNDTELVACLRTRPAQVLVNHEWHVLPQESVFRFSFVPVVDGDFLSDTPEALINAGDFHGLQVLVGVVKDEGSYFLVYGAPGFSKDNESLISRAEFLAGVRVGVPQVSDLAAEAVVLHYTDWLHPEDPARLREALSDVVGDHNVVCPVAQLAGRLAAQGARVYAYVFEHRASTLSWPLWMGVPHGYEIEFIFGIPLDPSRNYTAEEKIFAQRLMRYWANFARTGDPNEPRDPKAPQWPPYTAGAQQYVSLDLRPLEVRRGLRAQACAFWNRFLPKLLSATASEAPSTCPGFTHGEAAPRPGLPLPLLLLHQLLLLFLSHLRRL
Assay: IC50 erythrocyte h-AChE
Assay type: biochemical
Settings: read-out: IC50 erythrocyte h-AChE
In simple prose, pIC50 is minus the logarithm base ten of a concentration in moles per litre.

Task item: Which pIC50 reading was recorded for the compound Nc1c2c(nc3cc(Cl)ccc13)CC1C=C(CCO)CC2C1 (stereo not drawn) ?
Reply: 8.21

Task item: Which pIC50 reading was recorded for the compound COC(=O)c1cn(CCCCC2=CC3Cc4nc5cc(Cl)ccc5c(N)c4C(C2)C3)nn1 (stereo not drawn) ?
Reply: 7.97

Task item: Which pIC50 reading was recorded for the compound [N-]=[N+]=NCCCCC1=CC2Cc3nc4cc(Cl)ccc4c(N)c3C(C1)C2 (stereo not drawn) ?
Reply: 7.17

Task item: Which pIC50 reading was recorded for the compound Nc1c2c(nc3cc(Cl)ccc13)CC1C=C(CCCCn3cc(CO)nn3)CC2C1 (stereo not drawn) ?
Reply: 8.16

Task item: Which pIC50 reading was recorded for the compound Nc1c2c(nc3cc(Cl)ccc13)CC1C=C(CCOC(=O)C(F)(F)F)CC2C1 (stereo not drawn) ?
Reply: 7.56

Task item: Which pIC50 reading was recorded for the compound Nc1c2c(nc3cc(Cl)ccc13)CC1C=C(CCCCn3cc(COC(=O)C(F)(F)F)nn3)CC2C1 (stereo not drawn) ?
Reply: 7.16

###

Field: IC50. Provide a value for each of the compounds that follow.
Target: erythrocyte h-AChE (Homo sapiens)
Construct: from tissue; host or cells: human erythrocytes
Experiment: IC50 erythrocyte h-AChE
Format: biochemical
Conditions: read-out: IC50 erythrocyte h-AChE
Answer with a number only, understood to be in nM.

Task item: Which IC50 reading was recorded for the compound C=CC1=CC2Cc3nc4cc(Cl)ccc4c(N)c3C(C1)C2 (stereo not drawn) [HUP 3, Trifluoroacetic Acid] ?
Reply: 405

Task item: Which IC50 reading was recorded for the compound Nc1c2c(nc3cc(Cl)ccc13)CC1C=C(CCCCO)CC2C1 (stereo not drawn) [HUP 30] ?
Reply: 50.1

Task item: Which IC50 reading was recorded for the compound Nc1c2c(nc3cc(Cl)ccc13)CC1C=C(CCC(CO)CO)CC2C1 (stereo not drawn) [HUP 28] ?
Reply: 40.2

Task item: Which IC50 reading was recorded for the compound CCOC(=O)CC1=CC2Cc3nc4cc(Cl)ccc4c(N)c3C(C1)C2 (stereo not drawn) [HUP 1] ?
Reply: 38.3

Task item: Which IC50 reading was recorded for the compound CC(=O)OCCC1=CC2Cc3nc4cc(Cl)ccc4c(N)c3C(C1)C2 (stereo not drawn) [HUP 4] ?
Reply: 12

Task item: Which IC50 reading was recorded for the compound COCCC1=CC2Cc3nc4cc(Cl)ccc4c(N)c3C(C1)C2 (stereo not drawn) [HUP 6] ?
Reply: 4.5

Task item: Which IC50 reading was recorded for the compound CS(=O)(=O)OCCCCC1=CC2Cc3nc4cc(Cl)ccc4c(N)c3C(C1)C2 (stereo not drawn) [HUP 31] ?
Reply: 13.3

Task item: Which IC50 reading was recorded for the compound Nc1c2c(nc3cc(Cl)ccc13)CC1C=C(CCCl)CC2C1 (stereo not drawn) [HUP 9, Trifluoroacetic Acid] ?
Reply: 5.09

Task item: Which IC50 reading was recorded for the compound C=CC(=O)OCCC1=CC2Cc3nc4cc(Cl)ccc4c(N)c3C(C1)C2 (stereo not drawn) [HUP 18] ?
Reply: 129

###

Target: rh-AChE (Homo sapiens)
Assay: biochemical
Counter-ions that a name gives are not always drawn.
ASSAY METRIC: pIC50
In simple prose, pIC50 is minus the logarithm base ten of a concentration in moles per litre.

Task item: Which pIC50 reading was recorded for the compound Nc1c2c(nc3cc(Cl)ccc13)CC1C=C(CC(=O)O)CC2C1 (stereo not shown) [HUP 11, Hydrochloride] ?
Reply: 8.28

###

Target: erythrocyte h-AChE (Homo sapiens)
Construct: from tissue; host or cells: human erythrocytes
Test: IC50 erythrocyte h-AChE
Format: biochemical
Field: pIC50. Provide a value for each of the compounds that follow.
In simple prose, pIC50 is minus the logarithm base ten of a concentration in moles per litre.

Task item: Form: Entry = CCOC(=O)C(CCC1=CC2Cc3nc4cc(Cl)ccc4c(N)c3C(C1)C2)C(=O)OCC (centres unmarked) | System = erythrocyte h-AChE (Homo sapiens) | pIC50 = ____
Reply: 7.33

Task item: Form: Entry = COC(=O)CCCC1=CC2Cc3nc4cc(Cl)ccc4c(N)c3C(C1)C2 (centres unmarked) | System = erythrocyte h-AChE (Homo sapiens) | pIC50 = ____
Reply: 7.42

###

Target: UniProtKB P22303
Assay: biochemical
Details: read-out: IC50 rh-AChE
Field: log10 IC50. Provide a value for each of the compounds that follow.
Log scale reminder: IC50 in nM, then log10 taken.

Task item: Which log10 IC50 reading was recorded for the compound Nc1c2c(nc3cc(Cl)ccc13)CC1C=C(CCOC(=O)C(F)(F)F)CC2C1 (stereo not drawn) [HUP 5] ?
Reply: 0.23

Task item: Which log10 IC50 reading was recorded for the compound Nc1c2c(nc3cc(Cl)ccc13)CC1C=C(CCC(CO)CO)CC2C1 (stereo not drawn) [HUP 28] ?
Reply: 1.39

Task item: Which log10 IC50 reading was recorded for the compound NNCCC1=CC2Cc3nc4cc(Cl)ccc4c(N)c3C(C1)C2 (stereo not drawn) [HUP 14, Ditrifluoroacetic Acid] ?
Reply: 0.98

Task item: Which log10 IC50 reading was recorded for the compound COCCC1=CC2Cc3nc4cc(Cl)ccc4c(N)c3C(C1)C2 (stereo not drawn) [HUP 6] ?
Reply: 0.24

Task item: Which log10 IC50 reading was recorded for the compound CN(C)CCC1=CC2Cc3nc4cc(Cl)ccc4c(N)c3C(C1)C2 (stereo not drawn) [HUP 21, Ditrifluoroacetic Acid] ?
Reply: 1.99

Task item: Which log10 IC50 reading was recorded for the compound [N-]=[N+]=NCCCCC1=CC2Cc3nc4cc(Cl)ccc4c(N)c3C(C1)C2 (stereo not drawn) [HUP 32] ?
Reply: 1.12

###

Field: log10 IC50. Provide a value for each of the compounds that follow.
Molecular target: UniProt P06276
Sequence (P06276 29-602): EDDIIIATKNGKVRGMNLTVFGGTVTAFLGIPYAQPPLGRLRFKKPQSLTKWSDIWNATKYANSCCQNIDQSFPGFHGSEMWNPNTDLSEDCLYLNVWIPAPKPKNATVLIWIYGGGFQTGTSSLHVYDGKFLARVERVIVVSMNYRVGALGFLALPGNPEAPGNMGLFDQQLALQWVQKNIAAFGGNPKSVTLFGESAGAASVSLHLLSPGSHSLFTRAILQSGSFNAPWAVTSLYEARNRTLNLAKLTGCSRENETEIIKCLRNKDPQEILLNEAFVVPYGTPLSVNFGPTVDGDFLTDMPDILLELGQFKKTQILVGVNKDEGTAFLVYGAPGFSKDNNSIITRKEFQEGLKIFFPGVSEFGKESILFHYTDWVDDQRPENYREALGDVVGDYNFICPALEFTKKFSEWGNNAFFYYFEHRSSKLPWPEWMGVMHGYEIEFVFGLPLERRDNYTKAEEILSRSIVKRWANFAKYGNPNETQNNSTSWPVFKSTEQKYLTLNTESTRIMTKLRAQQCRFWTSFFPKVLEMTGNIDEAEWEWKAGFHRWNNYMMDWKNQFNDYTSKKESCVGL
Assay: IC50 rh-BuChE
Assay type: biochemical
Details: read-out: IC50 rh-BuChE
Log scale reminder: IC50 in nM, then log10 taken.

Task item: Form: Entry = Nc1c2c(nc3cc(Cl)ccc13)CC1C=C(CCI)CC2C1 (centres unmarked) [HUP 7] | System = UniProt P06276 | log10 IC50 = ____
Reply: 2.15

Task item: Form: Entry = CC(C)(C)OC(=O)ON(CCC1=CC2Cc3nc4cc(Cl)ccc4c(N)c3C(C1)C2)C(=O)OC(C)(C)C (centres unmarked) [HUP 16] | System = UniProt P06276 | log10 IC50 = ____
Reply: 2.62

Task item: Form: Entry = CN(C)C(=O)CC1=CC2Cc3nc4cc(Cl)ccc4c(N)c3C(C1)C2 (centres unmarked) [HUP 19, Trifluoroacetic Acid] | System = UniProt P06276 | log10 IC50 = ____
Reply: 3.44

Task item: Form: Entry = COCCC1=CC2Cc3nc4cc(Cl)ccc4c(N)c3C(C1)C2 (centres unmarked) [HUP 6] | System = UniProt P06276 | log10 IC50 = ____
Reply: 2.60

Task item: Form: Entry = Nc1c2c(nc3cc(Cl)ccc13)CC1C=C(CCO)CC2C1 (centres unmarked) [HUP 2] | System = UniProt P06276 | log10 IC50 = ____
Reply: 3.09

###

Biological target: rh-AChE (Homo sapiens, UniProt P22303)
Sequence (P22303 32-614): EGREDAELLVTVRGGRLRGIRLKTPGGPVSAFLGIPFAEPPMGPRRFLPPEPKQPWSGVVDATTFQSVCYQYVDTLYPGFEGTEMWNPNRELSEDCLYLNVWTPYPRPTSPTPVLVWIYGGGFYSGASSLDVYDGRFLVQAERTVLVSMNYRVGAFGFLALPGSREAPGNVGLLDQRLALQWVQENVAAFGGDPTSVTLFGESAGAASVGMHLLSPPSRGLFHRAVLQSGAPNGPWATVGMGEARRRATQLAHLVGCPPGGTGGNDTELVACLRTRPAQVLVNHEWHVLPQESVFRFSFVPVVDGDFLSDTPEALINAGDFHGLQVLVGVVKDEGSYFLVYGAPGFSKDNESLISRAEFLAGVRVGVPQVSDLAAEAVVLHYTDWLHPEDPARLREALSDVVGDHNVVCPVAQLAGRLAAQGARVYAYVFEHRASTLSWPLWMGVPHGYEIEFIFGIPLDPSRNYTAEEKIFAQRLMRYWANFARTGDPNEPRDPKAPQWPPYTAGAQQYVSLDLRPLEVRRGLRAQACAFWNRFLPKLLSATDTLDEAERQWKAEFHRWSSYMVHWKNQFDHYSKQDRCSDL
Assay: biochemical
Conditions: read-out: IC50 rh-AChE
ASSAY METRIC: IC50 (nM)
Answer with a number only, understood to be in nM.

Task item: Which IC50 reading was recorded for the compound Nc1c2c(nc3ccccc13)CC1C=C(CCCCn3cc(CO)nn3)CC2C1 (stereo not shown) [HUP 38, Trifluoroacetic Acid] ?
Reply: 94.1

Task item: Which IC50 reading was recorded for the compound COc1cc2c(cc1OC)C(c1ccccc1)N(Cc1cn(CCCCC3=CC4Cc5nc6cc(Cl)ccc6c(N)c5C(C3)C4)nn1)CC2 (stereo not shown) [HUP32-PIQ1, Ditrifluoroacetic Acid] ?
Reply: 3.31

Task item: Which IC50 reading was recorded for the compound COc1cc2c(cc1OC)C(c1ccccc1)N(CCCCc1cn(CCCCC3=CC4Cc5nc6cc(Cl)ccc6c(N)c5C(C3)C4)nn1)CC2 (stereo not shown) [HUP32-PIQ4, Ditrifluoroacetic Acid] ?
Reply: 0.78

Task item: Which IC50 reading was recorded for the compound Nc1c2c(nc3cc(Cl)ccc13)CC1C=C(CCO)CC2C1 (stereo not shown) [HUP 2] ?
Reply: 1.05

Recorded values, source patent US9040506B2.
